- system name: T1, ECF38_1322
- T1 chain: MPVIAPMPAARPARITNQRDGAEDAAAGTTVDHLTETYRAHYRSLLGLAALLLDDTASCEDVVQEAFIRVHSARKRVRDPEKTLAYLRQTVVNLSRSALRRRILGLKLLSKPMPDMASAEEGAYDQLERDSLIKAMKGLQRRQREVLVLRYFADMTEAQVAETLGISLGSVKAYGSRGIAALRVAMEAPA
The following binders are shown together with reported fold repression values.
parameter measured: fold repression

[[record]]
binder = "AS22_4450 (protein) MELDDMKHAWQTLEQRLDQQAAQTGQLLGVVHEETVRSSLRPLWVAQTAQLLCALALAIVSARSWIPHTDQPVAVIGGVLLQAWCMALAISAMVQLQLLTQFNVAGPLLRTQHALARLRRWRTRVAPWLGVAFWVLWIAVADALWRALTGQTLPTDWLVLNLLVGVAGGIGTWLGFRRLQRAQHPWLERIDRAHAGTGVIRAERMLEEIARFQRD"
recorded_result = 1.78

[[record]]
binder = "AS15_436 (protein) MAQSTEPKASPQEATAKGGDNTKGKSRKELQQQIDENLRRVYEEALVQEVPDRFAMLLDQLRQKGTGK"
recorded_result = 2.66


Just for reference, paper PMC3817407 is where these values come from.
